Experiment: Selectivity index, ratio of IC50 for CDK5 (unknown origin) to CDK1 (unknown origin)
Please assign FALSE whenever Ratio IC50 is at or above 4, and TRUE whenever it is below.

Solved entries (count: 4):
COc1ccc(Cc2nnc(N3CCN(C(=O)c4ccccc4)CC3)c3ccccc23)cc1	FALSE
COc1ccc(Cc2nnc(N3CCN(C(=S)Nc4ccccc4)CC3)c3ccccc23)cc1	FALSE
O=C(c1ccc(Cl)cc1)N1CCN(c2nnc(Cc3ccccc3)c3ccccc23)CC1	FALSE
S=C(Nc1ccc(Cl)cc1)N1CCN(c2nnc(Cc3ccccc3)c3ccccc23)CC1	TRUE

Qu. Lab note: confirm whether the reported Ratio IC50 for this molecule is below 4, equality not counting. molecule: "COc1ccc(Cc2nnc(N3CCN(C(=O)Nc4ccccc4)CC3)c3ccccc23)cc1"
Ans. FALSE

Qu. Lab note: confirm whether the reported Ratio IC50 for this molecule is below 4, equality not counting. molecule: "COc1ccc(Cc2nnc(N3CCN(C(=O)Nc4ccc(OC)cc4)CC3)c3ccccc23)cc1"
Ans. TRUE

Qu. Lab note: confirm whether the reported Ratio IC50 for this molecule is below 4, equality not counting. molecule: "COc1ccc(Cc2nnc(N3CCN(C(=O)Nc4ccc(Cl)c(C(F)(F)F)c4)CC3)c3ccccc23)cc1"
Ans. FALSE

Qu. Lab note: confirm whether the reported Ratio IC50 for this molecule is below 4, equality not counting. molecule: "O=C(Nc1ccccc1)N1CCN(c2nnc(Cc3ccccc3)c3ccccc23)CC1"
Ans. TRUE

Qu. Lab note: confirm whether the reported Ratio IC50 for this molecule is below 4, equality not counting. molecule: "O=C(c1ccccc1)N1CCN(c2nnc(Cc3ccccc3)c3ccccc23)CC1"
Ans. FALSE

Qu. Lab note: confirm whether the reported Ratio IC50 for this molecule is below 4, equality not counting. molecule: "COc1cccc(NC(=S)N2CCN(c3nnc(Cc4ccccc4)c4ccccc34)CC2)c1"
Ans. FALSE

Qu. Lab note: confirm whether the reported Ratio IC50 for this molecule is below 4, equality not counting. molecule: "O=C(Nc1ccc(Cl)cc1)N1CCN(c2nnc(Cc3ccccc3)c3ccccc23)CC1"
Ans. FALSE

Qu. Lab note: confirm whether the reported Ratio IC50 for this molecule is below 4, equality not counting. molecule: "S=C(Nc1cccc(Cl)c1)N1CCN(c2nnc(Cc3ccccc3)c3ccccc23)CC1"
Ans. TRUE

Qu. Lab note: confirm whether the reported Ratio IC50 for this molecule is below 4, equality not counting. molecule: "S=C(Nc1ccccc1)N1CCN(c2nnc(Cc3ccccc3)c3ccccc23)CC1"
Ans. FALSE

Qu. Lab note: confirm whether the reported Ratio IC50 for this molecule is below 4, equality not counting. molecule: "COc1ccc(Cc2nnc(N3CCN(C(=S)Nc4ccc(Cl)cc4)CC3)c3ccccc23)cc1"
Ans. FALSE

Qu. Lab note: confirm whether the reported Ratio IC50 for this molecule is below 4, equality not counting. molecule: "COc1ccc(C(=O)N2CCN(c3nnc(Cc4ccccc4)c4ccccc34)CC2)cc1"
Ans. FALSE

Qu. Lab note: confirm whether the reported Ratio IC50 for this molecule is below 4, equality not counting. molecule: "COc1ccc(Cc2nnc(N3CCN(C(=S)Nc4cccc(Cl)c4)CC3)c3ccccc23)cc1"
Ans. FALSE

Qu. Lab note: confirm whether the reported Ratio IC50 for this molecule is below 4, equality not counting. molecule: "COc1ccc(NC(=O)N2CCN(c3nnc(Cc4ccccc4)c4ccccc34)CC2)cc1"
Ans. FALSE

Qu. Lab note: confirm whether the reported Ratio IC50 for this molecule is below 4, equality not counting. molecule: "COc1ccc(Cc2nnc(N3CCN(C(=S)Nc4ccc(OC)cc4)CC3)c3ccccc23)cc1"
Ans. FALSE

----------
The following compounds have recorded pIC50 on Protein-tyrosine kinase 2-beta (Homo sapiens).
Sequence (Q14289 whole entry): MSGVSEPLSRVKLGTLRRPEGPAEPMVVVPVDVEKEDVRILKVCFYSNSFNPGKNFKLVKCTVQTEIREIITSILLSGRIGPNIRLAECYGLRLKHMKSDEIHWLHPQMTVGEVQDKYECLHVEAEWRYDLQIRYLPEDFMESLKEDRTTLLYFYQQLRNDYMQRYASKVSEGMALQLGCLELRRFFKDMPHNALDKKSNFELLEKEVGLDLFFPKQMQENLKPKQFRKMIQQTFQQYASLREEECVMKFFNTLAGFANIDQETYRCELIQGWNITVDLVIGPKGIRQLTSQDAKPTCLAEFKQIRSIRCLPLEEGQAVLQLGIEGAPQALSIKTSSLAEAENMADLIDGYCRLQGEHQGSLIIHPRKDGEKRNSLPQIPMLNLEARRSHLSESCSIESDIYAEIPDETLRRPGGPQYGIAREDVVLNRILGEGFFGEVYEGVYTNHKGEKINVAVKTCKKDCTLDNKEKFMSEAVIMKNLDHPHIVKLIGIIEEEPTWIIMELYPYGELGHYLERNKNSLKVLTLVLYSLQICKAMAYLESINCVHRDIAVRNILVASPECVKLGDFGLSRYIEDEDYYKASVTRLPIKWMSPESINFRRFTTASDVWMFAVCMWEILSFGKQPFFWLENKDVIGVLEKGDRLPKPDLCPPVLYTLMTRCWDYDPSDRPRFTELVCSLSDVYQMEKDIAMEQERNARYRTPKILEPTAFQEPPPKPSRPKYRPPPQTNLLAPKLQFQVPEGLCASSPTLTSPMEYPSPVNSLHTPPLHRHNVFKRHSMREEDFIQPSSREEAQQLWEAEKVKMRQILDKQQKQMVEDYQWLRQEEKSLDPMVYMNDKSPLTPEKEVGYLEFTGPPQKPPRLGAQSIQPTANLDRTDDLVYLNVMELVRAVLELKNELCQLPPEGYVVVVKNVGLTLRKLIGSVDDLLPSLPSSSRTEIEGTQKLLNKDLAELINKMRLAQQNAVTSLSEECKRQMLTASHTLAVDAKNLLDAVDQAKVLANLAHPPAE
Numbers only, as −log10 of the molar value.

COc1ccc(Cc2nnc(N3CCN(C(=O)Nc4ccc(OC)cc4)CC3)c3ccccc23)cc1	5.32
COc1ccc(NC(=S)N2CCN(c3nnc(Cc4ccccc4)c4ccccc34)CC2)cc1	5.44
COc1ccc(Cc2nnc(N3CCN(C(=O)Nc4ccc(Cl)c(C(F)(F)F)c4)CC3)c3ccccc23)cc1	5.44
COc1ccc(Cc2nnc(N3CCN(C(=O)c4ccccc4)CC3)c3ccccc23)cc1	5.36

Qu. Look up pIC50 for this compound: "COc1ccc(Cc2nnc(N3CCN(C(=S)Nc4ccccc4)CC3)c3ccccc23)cc1"
Ans. 5.84

----------
Test system: A-375
Experiment: Antiproliferative activity against human A-375 cells assessed as growth inhibition incubated at 10 uM for 24 hrs by MTT assay relative to control
Assay type: functional
Settings: read-out: GI
OUTCOME MEASURE: inhibition of growth at 10 µM (%)
Give bare numbers, in %.

Worked set:
COc1ccc(Cc2nnc(N3CCN(C(=O)Nc4ccc(OC)cc4)CC3)c3ccccc23)cc1	25.8
COc1ccc(Cc2nnc(N3CCN(C(=S)Nc4cccc(Cl)c4)CC3)c3ccccc23)cc1	86.4
COc1ccc(Cc2nnc(N3CCN(C(=O)Nc4ccc(Cl)c(C(F)(F)F)c4)CC3)c3ccccc23)cc1	89.2
COc1ccc(NC(=O)N2CCN(c3nnc(Cc4ccccc4)c4ccccc34)CC2)cc1	34.9
S=C(Nc1ccc(Cl)cc1)N1CCN(c2nnc(Cc3ccccc3)c3ccccc23)CC1	8.39
COc1ccc(Cc2nnc(N3CCN(C(=S)Nc4ccc(OC)cc4)CC3)c3ccccc23)cc1	47.9
COc1ccc(Cc2nnc(N3CCN(C(=O)Nc4ccccc4)CC3)c3ccccc23)cc1	36.1
COc1ccc(C(=O)N2CCN(c3nnc(Cc4ccccc4)c4ccccc34)CC2)cc1	5.3

// moving on: another record for inhibition of growth at 10 µM
Qu. Look up inhibition of growth at 10 µM for this compound: "COc1ccc(Cc2nnc(N3CCN(C(=O)c4ccccc4)CC3)c3ccccc23)cc1"
Ans. 10.3

----------
Provide the reported pIC50 of each item.
Target: Serine/threonine-protein kinase B-raf (Homo sapiens, UniProt P15056)
Sequence (P15056 whole entry): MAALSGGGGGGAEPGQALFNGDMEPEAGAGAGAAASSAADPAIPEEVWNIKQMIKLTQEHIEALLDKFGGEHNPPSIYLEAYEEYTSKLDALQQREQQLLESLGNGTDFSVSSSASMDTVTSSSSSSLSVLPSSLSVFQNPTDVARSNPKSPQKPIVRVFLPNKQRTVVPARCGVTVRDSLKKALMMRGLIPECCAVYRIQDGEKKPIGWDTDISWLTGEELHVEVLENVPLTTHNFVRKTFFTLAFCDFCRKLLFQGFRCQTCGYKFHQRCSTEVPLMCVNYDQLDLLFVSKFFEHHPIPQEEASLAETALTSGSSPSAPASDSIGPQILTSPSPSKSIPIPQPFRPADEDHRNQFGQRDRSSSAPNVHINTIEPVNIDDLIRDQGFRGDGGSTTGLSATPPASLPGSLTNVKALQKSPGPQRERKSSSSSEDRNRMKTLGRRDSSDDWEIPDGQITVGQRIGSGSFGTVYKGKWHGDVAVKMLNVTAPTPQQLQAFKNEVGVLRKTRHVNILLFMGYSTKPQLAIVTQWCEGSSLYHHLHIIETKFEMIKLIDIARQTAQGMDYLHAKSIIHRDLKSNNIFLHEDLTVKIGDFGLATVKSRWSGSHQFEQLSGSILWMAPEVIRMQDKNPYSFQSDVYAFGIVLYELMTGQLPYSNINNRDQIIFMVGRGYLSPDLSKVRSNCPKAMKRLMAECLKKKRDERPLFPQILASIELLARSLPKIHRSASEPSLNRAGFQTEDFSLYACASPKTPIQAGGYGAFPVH
Experiment: Inhibition of BRAF (unknown origin) by FRET assay
One number for each entry, as −log10 of the molar value.

COc1ccc(Cc2nnc(N3CCN(C(=O)Nc4ccc(Cl)c(C(F)(F)F)c4)CC3)c3ccccc23)cc1	5.55
O=C(Nc1ccc(Cl)c(C(F)(F)F)c1)N1CCN(c2nnc(Cc3ccccc3)c3ccccc23)CC1	5.83
COc1ccc(Cc2nnc(N3CCN(C(=S)Nc4cccc(Cl)c4)CC3)c3ccccc23)cc1	5.09

Go through the list and state pIC50 for each entry.
1. COc1ccc(C(=O)N2CCN(c3nnc(Cc4ccccc4)c4ccccc34)CC2)cc1
2. COc1ccc(Cc2nnc(N3CCN(C(=S)Nc4ccccc4)CC3)c3ccccc23)cc1

Ans.
5.33
5.32

----------
The following compounds have recorded IC50 on Cyclin-dependent kinase 1 (Homo sapiens).
Sequence (P06493 whole entry): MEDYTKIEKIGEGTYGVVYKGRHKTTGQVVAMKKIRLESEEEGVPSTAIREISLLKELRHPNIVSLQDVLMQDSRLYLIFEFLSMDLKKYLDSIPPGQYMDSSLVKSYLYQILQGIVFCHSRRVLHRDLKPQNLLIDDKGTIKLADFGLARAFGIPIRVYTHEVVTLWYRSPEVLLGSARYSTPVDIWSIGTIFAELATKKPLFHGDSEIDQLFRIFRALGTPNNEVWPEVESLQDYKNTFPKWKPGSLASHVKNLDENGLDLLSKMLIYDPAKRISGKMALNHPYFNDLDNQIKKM
Give bare numbers, in nM.

O=C(Nc1ccc(Cl)cc1)N1CCN(c2nnc(Cc3ccccc3)c3ccccc23)CC1	58.4
COc1ccc(Cc2nnc(N3CCN(C(=S)Nc4ccc(Cl)cc4)CC3)c3ccccc23)cc1	49.5
COc1ccc(C(=O)N2CCN(c3nnc(Cc4ccccc4)c4ccccc34)CC2)cc1	83.1
S=C(Nc1ccccc1)N1CCN(c2nnc(Cc3ccccc3)c3ccccc23)CC1	70

// moving on: another record for IC50
Qu. Param readout = IC50; param system = Cyclin-dependent kinase 1 (Homo sapiens); param query = "COc1ccc(Cc2nnc(N3CCN(C(=S)Nc4ccccc4)CC3)c3ccccc23)cc1" ; response: value
Ans. 85

----------
Provide the reported inhibition of growth at 10 µM of each item.
Tested on: HT-29
Assay: Antiproliferative activity against human HT-29 cells assessed as growth inhibition incubated at 10 uM for 24 hrs by MTT assay relative to control
Type: functional
Settings: read-out: GI

COc1ccc(NC(=O)N2CCN(c3nnc(Cc4ccccc4)c4ccccc34)CC2)cc1	54.1%

Go through the list and state inhibition of growth at 10 µM for each entry.
1. COc1ccc(Cc2nnc(N3CCN(C(=O)c4ccccc4)CC3)c3ccccc23)cc1
2. COc1ccc(C(=O)N2CCN(c3nnc(Cc4ccccc4)c4ccccc34)CC2)cc1
3. COc1ccc(Cc2nnc(N3CCN(C(=O)Nc4ccc(OC)cc4)CC3)c3ccccc23)cc1
4. O=C(c1ccc(Cl)cc1)N1CCN(c2nnc(Cc3ccccc3)c3ccccc23)CC1
5. COc1ccc(Cc2nnc(N3CCN(C(=S)Nc4cccc(Cl)c4)CC3)c3ccccc23)cc1
6. COc1ccc(Cc2nnc(N3CCN(C(=O)Nc4ccc(Cl)c(C(F)(F)F)c4)CC3)c3ccccc23)cc1
7. S=C(Nc1ccccc1)N1CCN(c2nnc(Cc3ccccc3)c3ccccc23)CC1
8. COc1ccc(Cc2nnc(N3CCN(C(=S)Nc4ccc(Cl)cc4)CC3)c3ccccc23)cc1

Ans.
1. 5.09%
2. 1.58%
3. 32.1%
4. 4.9%
5. 85%
6. 87.4%
7. 20.7%
8. 80.1%

Go through the list and state inhibition of growth at 10 µM for each entry.
1. COc1ccc(Cc2nnc(N3CCN(C(=O)Nc4ccccc4)CC3)c3ccccc23)cc1
2. S=C(Nc1ccc(Cl)cc1)N1CCN(c2nnc(Cc3ccccc3)c3ccccc23)CC1

Ans.
1: 51.3%; 2: 10.8%
